Exercise: state measured glycan array binding signal (z-score) for each of the binders provided.
TARGET_DESC: Fuc(a1-3)[Gal(b1-4)]GlcNAc(b1-2)Man(a1-3)[Fuc(a1-3)[Gal(b1-4)]GlcNAc(b1-2)Man(a1-6)]Man(b1-4)GlcNAc(b1-4)GlcNAc
EXPERIMENT: glycan array binding signal (z-score within array); higher = stronger binding
CONDITION_DESCRIPTION: glycan notation: IUPAC condensed, linker removed
Many of the other results were omitted from the sample, so the strongest signals are more common in it than they were.
Please reply with the value in numeric form only.

What value of glycan array binding signal (z-score) has been recorded for this entry: F17-L (Escherichia coli) (protein) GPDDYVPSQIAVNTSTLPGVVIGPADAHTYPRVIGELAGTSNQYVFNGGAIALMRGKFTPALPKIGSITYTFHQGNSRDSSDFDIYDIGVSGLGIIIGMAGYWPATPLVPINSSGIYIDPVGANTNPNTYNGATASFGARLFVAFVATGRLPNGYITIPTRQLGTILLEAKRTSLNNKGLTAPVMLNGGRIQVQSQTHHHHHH
-0.072

For Epa8 (Candida glabrata) (protein) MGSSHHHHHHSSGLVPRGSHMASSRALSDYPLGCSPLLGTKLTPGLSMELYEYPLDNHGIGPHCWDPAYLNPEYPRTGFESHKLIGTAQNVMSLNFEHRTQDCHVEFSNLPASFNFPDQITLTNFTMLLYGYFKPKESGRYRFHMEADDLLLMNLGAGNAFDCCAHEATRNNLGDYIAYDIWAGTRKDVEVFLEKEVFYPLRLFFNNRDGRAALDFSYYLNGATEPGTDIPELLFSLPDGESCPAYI , what is its reported glycan array binding signal (z-score)?
-0.093

Reported glycan array binding signal (z-score) for Pbx2CASH domain (Cryptococcus neoformans) (protein) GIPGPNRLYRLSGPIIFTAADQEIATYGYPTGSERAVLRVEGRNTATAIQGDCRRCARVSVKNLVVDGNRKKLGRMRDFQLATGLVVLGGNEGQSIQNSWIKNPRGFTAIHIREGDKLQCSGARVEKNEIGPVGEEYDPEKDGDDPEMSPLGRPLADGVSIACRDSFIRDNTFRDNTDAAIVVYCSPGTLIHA : what is it?
-0.141

Find the recorded glycan array binding signal (z-score) belonging to PGP3 (Chlamydia trachomatis), P0CE18 (protein) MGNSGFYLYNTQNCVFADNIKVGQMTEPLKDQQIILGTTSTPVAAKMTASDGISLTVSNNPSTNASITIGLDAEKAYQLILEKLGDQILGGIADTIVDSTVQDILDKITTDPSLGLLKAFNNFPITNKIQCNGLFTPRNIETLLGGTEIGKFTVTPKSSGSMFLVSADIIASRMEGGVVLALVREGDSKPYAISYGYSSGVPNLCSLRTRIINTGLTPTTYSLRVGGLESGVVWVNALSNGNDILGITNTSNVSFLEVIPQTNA and report it.
2.78
